- Test system: Escherichia coli (ATCC 8739)
- METHOD NOTES: Minimal Inhibitory Concentration (MIC) on Escherichia coli with or without PMBN, OD600 after O/N growth
- Format: cell-based
- CONDITION NOTES: E. coli (ATCC 8739); together with PMBN at 40 μg/ml
Minimal inhibitory concentration With PMBN overview
Write the answer as a number in µM, unit excluded.

INPUT: Lab note: need Minimal inhibitory concentration With PMBN with Escherichia coli (ATCC 8739) for entry CCSc1nc(N[C@@H]2C[C@H]2c2ccc(F)c(F)c2)c2ncn(C)c2n1 , please look it up.
OUTPUT: 50

INPUT: Lab note: need Minimal inhibitory concentration With PMBN with Escherichia coli (ATCC 8739) for entry C=CCn1cnc2c(N[C@@H]3C[C@H]3c3ccc(F)c(F)c3)nc(SCCC)nc21 , please look it up.
OUTPUT: 50

INPUT: Form field: Minimal inhibitory concentration With PMBN recorded for CCn1cnc2c(N[C@@H]3C[C@H]3c3ccc(F)c(F)c3)nc(SC)nc21 with Escherichia coli (ATCC 8739) (enter value)
OUTPUT: 50

INPUT: Report Minimal inhibitory concentration With PMBN for CCCCSc1nc(N[C@@H]2C[C@H]2c2ccc(F)c(F)c2)c2ncn(C)c2n1 tested on Escherichia coli (ATCC 8739).
OUTPUT: 90

INPUT: Give the reported Minimal inhibitory concentration With PMBN for CSc1nc(N[C@@H]2C[C@H]2c2ccc(F)c(F)c2)c2cnn(C)c2n1 (system: Escherichia coli (ATCC 8739)).
OUTPUT: 25

INPUT: Form field: Minimal inhibitory concentration With PMBN recorded for CCCSc1nc(N[C@@H]2C[C@H]2c2ccc(F)c(F)c2)c2ncn([C@@H]3C[C@H](O)[C@@H](O)[C@H]3O)c2n1 with Escherichia coli (ATCC 8739) (enter value)
OUTPUT: 10

INPUT: Give the reported Minimal inhibitory concentration With PMBN for C#CCn1cnc2c(N[C@@H]3C[C@H]3c3ccc(F)c(F)c3)nc(SCCC)nc21 (system: Escherichia coli (ATCC 8739)).
OUTPUT: 10

INPUT: Given the entry CCCSc1nc(N[C@@H]2C[C@H]2c2ccc(F)c(F)c2)c2ncn(C)c2n1 , what Minimal inhibitory concentration With PMBN was observed with Escherichia coli (ATCC 8739)?
OUTPUT: 10
